# System: normal NK cells expanded with K562-aAPC
# assayNotes: percent inhibition of viability; higher = more inhibition
# conditionContext: 72 h; IL-2 2.5 ng/mL; 10000 nM
Catalogue of percent inhibition of viability readings, one per entry.
# output: bare number, implied unit %

• CNC(=O)c1nn(C)c2c1C(C)(C)Cc1cnc(Nc3ccc(N4CCN(C)CC4)cc3)nc1-2 [Milciclib] (max concentration tested 10000 nM) = 101
• N[C@@H]1CCCN(c2c(/C=C3\SC(=O)NC3=O)cccc2-c2ccccc2)C1 [AZD1208] (max concentration tested 10000 nM) = 28.9

Incoming: // map Nc1cc(F)ccc1NC(=O)/C=C/c1cnn(C/C=C/c2ccccc2)c1 [RGFP966] (max concentration tested 10000 nM) to recorded percent inhibition of viability (system: normal NK cells expanded with K562-aAPC)
Outgoing: 9.19

Incoming: // map CN[C@@H]1C[C@H]2O[C@@](C)([C@@H]1OC)n1c3ccccc3c3c4c(c5c6ccccc6n2c5c31)C(=O)N[C@H]4O [UCN-01] (max concentration tested 10000 nM) to recorded percent inhibition of viability (system: normal NK cells expanded with K562-aAPC)
Outgoing: 101

Incoming: // map Cn1cncc1[C@@](N)(c1ccc(Cl)cc1)c1ccc2c(c1)c(-c1cccc(Cl)c1)cc(=O)n2C [Tipifarnib] (max concentration tested 10000 nM) to recorded percent inhibition of viability (system: normal NK cells expanded with K562-aAPC)
Outgoing: 75.8

Incoming: // map c1ccc([C@H]2CN3CCSC3=N2)cc1 [Levamisole] (max concentration tested 10000 nM) to recorded percent inhibition of viability (system: normal NK cells expanded with K562-aAPC)
Outgoing: -11

Incoming: // map CN(C)/N=N/c1[nH]cnc1C(N)=O [Dacarbazine] (max concentration tested 10000 nM) to recorded percent inhibition of viability (system: normal NK cells expanded with K562-aAPC)
Outgoing: 10.3

Incoming: // map CCc1c(C(=O)C(N)=O)c2c(OCC(=O)O)cccc2n1Cc1ccccc1 [Varespladib] (max concentration tested 10000 nM) to recorded percent inhibition of viability (system: normal NK cells expanded with K562-aAPC)
Outgoing: 4.13

Incoming: // map COc1cc2c(cc1-c1c(C)noc1C)ncc1[nH]c(=O)n([C@H](C)c3ccccn3)c12 [I-BET151] (max concentration tested 10000 nM) to recorded percent inhibition of viability (system: normal NK cells expanded with K562-aAPC)
Outgoing: 70.7
